Assay comment: Inhibition of HCV BK NS5B polymerase
Design: species or system Hepacivirus hominis
pIC50: −log10 of the molar value.
Binary call on pIC50: Condition met from 5 upward, Condition not met beneath that.

Test whether the compound CCc1ccc(/C=C2\SC(N[C@H](C(=O)NS(=O)(=O)c3cccc([N+](=O)[O-])c3)c3ccc(F)cc3)=NC2=O)o1 (stereo in doubt) records pIC50 of 5 or higher.
Condition not met

Test whether the compound CCc1ccc(/C=C2\SC(N[C@H](CS(=O)(=O)NC(=O)c3ccccc3)c3ccccc3)=NC2=O)o1 (stereo in doubt) records pIC50 of 5 or higher.
Condition not met

Test whether the compound CCc1ccc(/C=C2\SC(N[C@H](C(=O)NS(=O)(=O)c3cccc(C(=O)OC)c3)c3ccc(F)cc3)=NC2=O)o1 (stereo in doubt) records pIC50 of 5 or higher.
Condition not met

Test whether the compound CCc1ccc(/C=C2\SC(N[C@H](C(=O)NS(=O)(=O)c3ccc([N+](=O)[O-])cc3)c3ccc(Cl)cc3Cl)=NC2=O)o1 (stereo in doubt) records pIC50 of 5 or higher.
Condition met
